- Measured Target: T1, recombinant soluble PSMA (rsPSMA) (human, UniProt Q04609 44-750)
- T1 construct: also called rsPSMA dimer; secreted rsPSMA
- T1 sequence (Q04609 44-750): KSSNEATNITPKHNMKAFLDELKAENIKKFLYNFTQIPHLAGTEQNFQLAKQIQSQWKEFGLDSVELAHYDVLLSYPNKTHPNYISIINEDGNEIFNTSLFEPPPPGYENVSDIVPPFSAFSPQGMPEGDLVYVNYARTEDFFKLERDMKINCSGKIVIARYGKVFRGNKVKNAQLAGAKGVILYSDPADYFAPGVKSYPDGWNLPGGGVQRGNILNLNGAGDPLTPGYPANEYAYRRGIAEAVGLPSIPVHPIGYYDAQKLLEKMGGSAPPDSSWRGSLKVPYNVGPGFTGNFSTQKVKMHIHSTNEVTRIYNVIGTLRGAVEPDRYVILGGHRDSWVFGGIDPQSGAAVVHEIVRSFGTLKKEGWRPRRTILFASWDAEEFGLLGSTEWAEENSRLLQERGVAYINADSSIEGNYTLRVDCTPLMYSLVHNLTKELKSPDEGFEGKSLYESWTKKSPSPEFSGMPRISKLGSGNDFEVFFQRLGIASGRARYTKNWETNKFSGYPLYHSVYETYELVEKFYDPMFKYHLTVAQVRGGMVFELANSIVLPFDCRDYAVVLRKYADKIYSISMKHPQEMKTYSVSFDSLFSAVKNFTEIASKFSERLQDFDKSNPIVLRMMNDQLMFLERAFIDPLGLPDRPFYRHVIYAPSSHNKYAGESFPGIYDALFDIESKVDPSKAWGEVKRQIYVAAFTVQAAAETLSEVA
- Measurement Description: Biacore, rsPSMA
Parameter Measured: koff (s⁻¹)
Quick note: give the figure in s⁻¹, leave out the unit.

Please report the measured koff for AB-PG1-XG1-051 (antibody, V domains shown, also called XG-051; PRGX1-XG1-051) VH: QVQLVESGGGVVQPGRSLRLSCAASGFTFSSYGMHWVRQAPGKGLDWVAIIWHDGSNKYYADSVKGRFTISRDNSKKTLYLQMNSLRAEDTAVYYCARAWAYDYGDYEYYFGMDVWGQGTTVTVSS VL: DIQMTQSPSSLSASVGDRVTITCRASQGISHYLAWFQQKPGKAPKSLIYAASSLQSGVPSKFSGSGSGTDFTLTISSLQPEDFATYYCQQYNSFPLTFGGGTKVEIK 8.2e-05

Please report the measured koff for AB-PG1-XG1-026 (antibody, V domains shown, also called XG-026; PRGX1-XG1-026) VH: QVQLVESGGGVVQPGRSLRLSCAASGFTFSNYVMHWVRQAPGKGLEWVAIIWYDGSNKYYADSVKGRFTISRDNSKNTLYLQMNSLRAEDTAVYYCAGGYNWNYEYHYYGMDVWGQGTTVTVSS VL: DIQMTQSPSSLSASVGDRVTITCRASQGITNYLAWFQQKPGKAPKSLIYAASSLQSGVPSKFSGSGSGTDFSLTISSLQPEDFATYYCQQYNSYPITFGQGTRLEIK 2.9e-05

Please report the measured koff for AB-PG1-XG1-077 (antibody, V domains shown, also called PRGX1-XG1-077) VH: QVQLVESGGGVVQPGRSLRLSCAASGFTFISYGMHWVRQAPGKGLEWVAVISYDGSNKYYADSVKGRFTISRDNSKNTLYLQMNSLRAEDTAVYYCARVLVGALYYYNYYGMDVWGQGTTVTVSS VL: DIVMTQTPLSLSVTPGQPASISCKSSQSLLHSDGKTFLYWYLQKPGQPPQLLIYEVSNRFSGVPDRFSGSGSGTDFTLKISRVEAEDVGLYYCMQSIQLPLTFGGGTKVEIK 0.000104

Please report the measured koff for AB-PG1-XG1-006 (antibody, V domains shown, also called XG-006; PRGX1-XG1-006) VH: QVQLVESGGGVVQPGRSLRLSCAASGFAFSRYGMHWVRQAPGKGLEWVAVIWYDGSNKYYADSVKGRFTISRDNSKNTQYLQMNSLRAEDTAVYYCARGGDFLYYYYYGMDVWGQGTTVTVSS VL: DIQMTQSPSSLSASVGDRVTITCRASQGISNYLAWYQQKTGKVPKFLIYEASTLQSGVPSRFSGGGSGTDFTLTISSLQPEDVATYYCQNYNSAPFTFGPGTKVDIK 6.4e-05

The reported numbers originate from patent US20080286284A1.
